- test_system: human EGF receptor (Homo sapiens, UniProt P00533)
- Construct: expressed in transfected cells; host or cells: NIH3T3 clone C7 (EGFR/C7; mouse fibroblasts)
- Sequence (P00533 25-1210): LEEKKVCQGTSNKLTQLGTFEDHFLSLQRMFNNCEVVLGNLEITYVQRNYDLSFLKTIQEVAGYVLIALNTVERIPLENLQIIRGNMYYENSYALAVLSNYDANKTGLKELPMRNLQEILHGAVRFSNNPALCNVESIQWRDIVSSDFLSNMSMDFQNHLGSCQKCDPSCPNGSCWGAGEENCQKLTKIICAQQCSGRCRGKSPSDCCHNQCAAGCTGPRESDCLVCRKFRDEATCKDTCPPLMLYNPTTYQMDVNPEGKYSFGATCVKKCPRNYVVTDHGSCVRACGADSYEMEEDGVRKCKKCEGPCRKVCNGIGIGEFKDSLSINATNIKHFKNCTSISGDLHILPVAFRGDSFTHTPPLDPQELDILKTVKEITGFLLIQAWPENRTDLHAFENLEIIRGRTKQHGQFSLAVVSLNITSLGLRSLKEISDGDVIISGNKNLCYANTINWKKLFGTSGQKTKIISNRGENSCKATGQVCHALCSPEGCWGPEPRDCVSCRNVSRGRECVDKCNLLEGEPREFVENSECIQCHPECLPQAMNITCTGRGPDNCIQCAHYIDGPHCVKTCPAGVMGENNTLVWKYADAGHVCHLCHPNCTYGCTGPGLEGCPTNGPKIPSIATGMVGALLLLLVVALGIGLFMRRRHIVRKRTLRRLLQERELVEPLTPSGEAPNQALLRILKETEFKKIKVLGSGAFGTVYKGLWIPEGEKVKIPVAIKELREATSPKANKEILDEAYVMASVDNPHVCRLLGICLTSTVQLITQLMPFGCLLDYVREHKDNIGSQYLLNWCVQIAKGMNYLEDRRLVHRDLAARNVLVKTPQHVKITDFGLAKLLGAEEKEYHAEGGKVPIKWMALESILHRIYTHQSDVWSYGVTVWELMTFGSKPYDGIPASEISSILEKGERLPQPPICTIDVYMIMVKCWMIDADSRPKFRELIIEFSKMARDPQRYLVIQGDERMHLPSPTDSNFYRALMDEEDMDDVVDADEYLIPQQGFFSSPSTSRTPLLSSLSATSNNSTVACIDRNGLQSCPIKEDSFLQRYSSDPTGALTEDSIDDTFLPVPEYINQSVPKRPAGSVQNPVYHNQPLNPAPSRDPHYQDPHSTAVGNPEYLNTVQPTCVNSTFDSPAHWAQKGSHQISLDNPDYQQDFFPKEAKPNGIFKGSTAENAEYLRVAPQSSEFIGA
- assay_notes: EGF-receptor whole cell kinase assay (EGFR-3T3)
- Assay type: cell-based
- condition_notes: Table VI, cellular kinase assay; read-out: EGFR-3T3
- From the text: The following target cells were used for cellular kinaseassays: NIH3T3 clone C7 (Honegger et al., supra) engineered to over-express human EGF receptor; NIH3T3 cells engineered to over-express a chimeric receptor containing the EGFR extracellular domain and the HER2 intracellular kinase domain; the human mammary carcinoma line BT474 (ATCC HTB2) expressing HER2; and the human glioblastoma line U1242 that expresses PDGFR-β. […]
pIC50: −log10 of the molar value.
measure_name: pIC50

[[record]]
smiles_record = "CC(C)(C)c1cc(/C=C(\\C#N)C(N)=S)cc(C(C)(C)C)c1O"
test_system = "human EGF receptor (Homo sapiens, UniProt P00533)"
relation = "="
observed_result = 4.68

[[record]]
smiles_record = "CC(C)c1cc(/C=C(\\C#N)S(=O)(=O)/C(C#N)=C/c2cc(C(C)C)c(O)c(C(C)C)c2)cc(C(C)C)c1O"
test_system = "human EGF receptor (Homo sapiens, UniProt P00533)"
relation = "<"
observed_result = 4.30

[[record]]
smiles_record = "CC(C)(C)c1cc(/C=C(\\C#N)S(=O)(=O)CC#N)cc(C(C)(C)C)c1O"
test_system = "human EGF receptor (Homo sapiens, UniProt P00533)"
relation = "="
observed_result = 4.25

[[record]]
smiles_record = "CC(C)c1cc(/C=C(\\C#N)S(=O)(=O)c2ccccn2)cc(C(C)C)c1O"
test_system = "human EGF receptor (Homo sapiens, UniProt P00533)"
relation = "<"
observed_result = 4.00

[[record]]
smiles_record = "CC(C)c1cc(C=C(C#N)C(N)=C(C#N)C#N)cc(C(C)C)c1O"
test_system = "human EGF receptor (Homo sapiens, UniProt P00533)"
relation = "<"
observed_result = 4.30

[[record]]
smiles_record = "CC(C)(C)c1cc(/C=C(\\C#N)C(=O)Nc2ccc(C(F)(F)F)cc2)cc(C(C)(C)C)c1O"
test_system = "human EGF receptor (Homo sapiens, UniProt P00533)"
relation = "<"
observed_result = 4.00

[[record]]
smiles_record = "N#C/C(=C\\c1cc(O)c(O)c(I)c1)C(=O)NCCCc1ccccc1"
test_system = "human EGF receptor (Homo sapiens, UniProt P00533)"
relation = "="
observed_result = 5.05

[[record]]
smiles_record = "CC(C)c1cc(/C=C(\\C#N)S(=O)(=O)c2ccccc2)cc(C(C)C)c1O"
test_system = "human EGF receptor (Homo sapiens, UniProt P00533)"
relation = "="
observed_result = 4.21

[[record]]
smiles_record = "CC(C)(C)c1cc(C=C(C#N)c2[nH]nc(N)c2C#N)cc(C(C)(C)C)c1O"
test_system = "human EGF receptor (Homo sapiens, UniProt P00533)"
relation = "="
observed_result = 5.06


---

Reported pIC50 values for a set of molecules
- test_system: PDGFR-β (Homo sapiens, UniProt P09619)
- Construct: the human glioblastoma line U1242 that expresses PDGFR-β; endogenous in cells
- Sequence (P09619 33-1106): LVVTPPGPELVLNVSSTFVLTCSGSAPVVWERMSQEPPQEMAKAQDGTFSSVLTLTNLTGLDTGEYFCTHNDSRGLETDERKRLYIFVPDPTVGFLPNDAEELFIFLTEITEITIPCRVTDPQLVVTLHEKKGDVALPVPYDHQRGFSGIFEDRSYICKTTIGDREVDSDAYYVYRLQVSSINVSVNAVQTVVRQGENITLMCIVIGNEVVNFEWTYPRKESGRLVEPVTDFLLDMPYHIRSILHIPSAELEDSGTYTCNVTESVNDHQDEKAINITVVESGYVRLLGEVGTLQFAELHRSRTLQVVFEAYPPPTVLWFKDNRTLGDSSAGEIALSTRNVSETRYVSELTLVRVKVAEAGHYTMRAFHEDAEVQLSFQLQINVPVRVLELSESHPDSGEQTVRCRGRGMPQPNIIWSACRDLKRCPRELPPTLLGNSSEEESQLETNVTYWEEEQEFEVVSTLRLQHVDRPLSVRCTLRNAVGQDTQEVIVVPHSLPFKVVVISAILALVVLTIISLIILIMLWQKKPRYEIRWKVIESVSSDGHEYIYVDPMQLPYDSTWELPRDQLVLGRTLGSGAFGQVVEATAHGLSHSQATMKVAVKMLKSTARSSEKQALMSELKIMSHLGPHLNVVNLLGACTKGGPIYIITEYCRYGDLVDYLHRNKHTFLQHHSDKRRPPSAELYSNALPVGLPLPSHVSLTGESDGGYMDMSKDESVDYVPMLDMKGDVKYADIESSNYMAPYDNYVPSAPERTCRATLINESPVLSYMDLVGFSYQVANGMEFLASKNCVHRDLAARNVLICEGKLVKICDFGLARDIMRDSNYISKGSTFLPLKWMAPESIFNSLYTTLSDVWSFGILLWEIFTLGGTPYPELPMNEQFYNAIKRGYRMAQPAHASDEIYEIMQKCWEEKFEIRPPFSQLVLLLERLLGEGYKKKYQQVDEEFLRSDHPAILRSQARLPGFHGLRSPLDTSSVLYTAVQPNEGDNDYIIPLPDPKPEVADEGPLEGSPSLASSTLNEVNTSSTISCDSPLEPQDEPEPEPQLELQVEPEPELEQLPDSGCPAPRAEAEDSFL
- assay_notes: PDGFR-β cellular kinase assay (U1242 cells)
- condition_notes: Table V, read-out: Estimated IC50 Cellular Kinase Assays PDGFR-β
- From the text: This example illustrates the ability of the exemplary compounds to inhibit receptor tyrosine kinases, such as HER2 and/or EGFR. […]
pIC50: −log10 of the molar value.
measure_name: pIC50

[[record]]
smiles_record = "N#C/C(=C\\c1ccc(O)c(O)c1)C(=S)NCc1ccccc1"
test_system = "PDGFR-β (Homo sapiens, UniProt P09619)"
relation = "="
observed_result = 4.22

[[record]]
smiles_record = "CC(C)(C)c1cc(/C=C(\\C#N)C(N)=S)cc(C(C)(C)C)c1O"
test_system = "PDGFR-β (Homo sapiens, UniProt P09619)"
relation = "<"
observed_result = 4.00

[[record]]
smiles_record = "N#C/C(=C\\c1cc(O)c(O)c(I)c1)C(=O)NCCCc1ccccc1"
test_system = "PDGFR-β (Homo sapiens, UniProt P09619)"
relation = "="
observed_result = 4.46


Where do these numbers come from? They come from patent US6596878B2.
